Data provenance is the supplement of paper PMC9170038.

Collected apparent KD of MS2 coat protein values appear next to each entry.
- System: MS2 coat protein
- Assay Notes: apparent KD of MS2 coat protein; designed switch direction (-1 OFF switch, 1 ON switch): 1; higher = weaker reporter binding
- Cond: input ligand: none

Chain	apparent KD of MS2 coat protein (nM)
GGACCCUUCGGAGGAUAUUCUCAGUAACAGUAAGAAGAAGGCCGUAAGUCAUACGCGCGUUACAUGAGGAUCACCCAUGUGUGG [Eternabot solution 47] (Eterna round: R96, puzzle: Same State NG 1)	333
UGGAGACAUCAAGGAUAUGCUACCGUUUCGGUAGCAGAAGGUGAUCACAUGAGGAUCACCCAUGUAUGCAUGCGUGAGCGUGCU [JL SSNG1 3.53] (Eterna round: R96, puzzle: Same State NG 1)	35.4
GUUAGGAAUCUAGCAGACAUGAGGAUCACCCAUGUUAGUGGGAAGGAUAUGGUACAGAAACUGUACCAGAAGGUCUUAUUGUUU [Omei SS(NG) 3 AV13] (Eterna round: R96, puzzle: Same State NG 3)	690
AUUGGGUAACGAGGAUAUCGUUUUUGUUUUCUUCGAGAAGGCGUUAUAGUUUAUUUCUAUUGUUACAUGAGGAUCACCCAUGUU [JR_SSNG1_Sub054] (Eterna round: R96, puzzle: Same State NG 1)	24.1
GCUCCGCAAUACUUUCACAUGAGGAUCACCCAUGUUCACGUUAAGGAUAUCUAUUGUGAGACAGUAGAGAAGGUAGCGAGCGAC [Eternabot solution 11] (Eterna round: R96, puzzle: Same State NG 3)	24.2

====

- Tested on: MS2 coat protein
- Assay Notes: apparent KD of MS2 coat protein; designed switch direction (-1 OFF switch, 1 ON switch): -1; higher = weaker reporter binding
- Cond: input ligand: none

Chain	Unit Symbol	apparent KD of MS2 coat protein
UUAAUACAUGAGGAUCACCCAUGUCAGGAUAUCCGUAUUUCUUAUAUAUAUUUCUAUCGGAGAAGGGACACAUU [lam1] (Eterna round: R97, puzzle: Exclusion 1)	µM	0.0454
UGCAGACGAGGAUAUGAUAAUUAAUACAUGAGGAUCACCCAUGUAAUACUGAUCCAUGGAUCAGAAGGCGUCUGCU [E5/4-A3] (Eterna round: R97, puzzle: Exclusion 5)	µM	0.0137
CGUAGCAUUGUGAGGAUAUCUAGAGCUUCGGCUCUAGAGAAGGCACAUGAGGAUCACCCAUGUGAUUAGCUACG [BmEx4/9-C1] (Eterna round: R97, puzzle: Brourd's mod of Exclusion 4)	µM	0.111
AAUGAUUGACGAGGAUAUUGUGUUAGAUCACGACGAGAAGGCGUCUGUCACAUGAGGAUCACCCAUGUGAGCCUGGUGGAUGGG [Ex NG1 #79] (Eterna round: R96, puzzle: Exclusion NG 1)	µM	0.0267
GCAGUAUGAGUUAGGAUAUGAUGAUUUUUAUUAAAUCAGAAGGAACUUGAGGAUCACCCAAGUAAAGAAUUGGU [JR_BMEx4_Sub069] (Eterna round: R97, puzzle: Brourd's mod of Exclusion 4)	µM	0.0204

====

Collected apparent KD of K4 kissing-loop reporter values appear next to each entry.
- Tested on: K4 kissing-loop RNA reporter
- Assay Notes: apparent KD of K4 kissing-loop reporter; higher = weaker reporter binding
- Cond: Eterna round: R107; input ligand: FMN 200 uM
Value Kind: apparent KD of K4 kissing-loop reporter (nM)

Chain	System Name	Unit Symbol	Value
UAAUAAAUUCUGGCAAUGUCACUCUUCGAAGGAGCGGACGAAAGUCCAGGUAGGUCGCGAAGAGUGAUGUUCUUCGCGGCGCCAG [Omei KL Arginine A Exc A v1]	K4 kissing-loop RNA reporter	nM	299
GCUAGCAUGGCAGGAUAUAGCAAUAGGAGUGAUGUUCCUUGGUAGGUGAGUGAUGUUCACUACCAACUAGAAGGGCCAUGCUAGC	K4 kissing-loop RNA reporter	nM	139
AUGUACAUUCUCAGUGAUGUUGGGUUGUAACGAGGACCGGUACGGCCGCCACUCGGGAUGUGGUAUAUAGAUGUAUGUGUAGCAU [skye_SS_TA]	K4 kissing-loop RNA reporter	nM	612
UAGCGGUAGAGGCCACCGCUAUUCUGAGAAGGAGCGCAGAUGACUGCAGGUAGGUCGCUUAGAGCUUGCAGUGAUGUUGCAAGUU [Tebete]	K4 kissing-loop RNA reporter	nM	171
GGCAUGCGUAGAGUGAUGUUCUAAGAUGAUACCAGUGCGGAAACGCACCCUUGGCAGCAUCUGACGAGCAUGCCGGCGAAAGCCU	K4 kissing-loop RNA reporter	nM	792
GAGGAUUGAACGGCCGCCACUGCGCGCAGCUGCAAUCGAGUGAUGUUCCAUCAGUUGUCCAGUUCCAGGACCGGGUUCCGAUGCC [theeternabot_exclusion_KL_Trp_B_12]	K4 kissing-loop RNA reporter	nM	499
CAUAAAAGGUGGAAGACGAAUCGGUGUCGCCGAGGACCGGUACGGCCGCCACUCGGUCAUCAAAUCCUUCCCGAGUGAUGUUCGA [theeternabot_sameState_KL_Trp_A_5]	K4 kissing-loop RNA reporter	nM	382
AUUAUAAAGUCGGCCGCCACUGAGAGUAGUGAUGUUACUCUAUUCCUUUAGAUAUUAUAUUUUAUCAGGACCGGGACAUCAGAUU [JR_ExcTryptoB_Sub019]	K4 kissing-loop RNA reporter	nM	332
AAAUAGCAGCAACGAGUGAUGUUCGACGAUACCAGCCUCGAUAGAGGCCCUUGGCAGCGUAAAUGAUCACAAAGCCAAGGGCUGC [#SwitchBubble 2]	K4 kissing-loop RNA reporter	nM	382
UUGCUUCUACUAGGAUAUCAUCAGUCAUGUUCAAUGACACUCGAGUGAUGUUCGAUAGAAGCGAGAUGAGAAGGAGUACAAGCAG [FMB B SS t3]	K4 kissing-loop RNA reporter	nM	374
AAGCAGUCACUCGUAACCAUCGAAGAUGGUCGAGGACCGGUACGGCCGCCACUCGGAGUGAUGUUCCGAAGACUGCAAAAUAAAA [#SwitchBubble 12]	K4 kissing-loop RNA reporter	nM	237
AGCCGUCUAAGUGAUGUUUAGGCAUGUCAGCGAGGACCGGUACGGCCGCCACUCGUGCUAUUGAGAUUUCGGGUAGCCCACGUAG [theeternabot_sameState_KL_Trp_A_20]	K4 kissing-loop RNA reporter	nM	288

====

- Tested on: K4 kissing-loop RNA reporter;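 also: bound reporter read as fluorescence of individual clusters on recovered sequencing chips by microscopy, with normalized cluster intensities fitted with a binding model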
- Assay Notes: apparent KD of K4 kissing-loop reporter; higher = weaker reporter binding
- Cond: Eterna round: R107; input ligand: FMN 200 uM

Chain	System Name	Unit Symbol	apparent KD of K4 kissing-loop reporter
UUCUACGAGUGAUGUUCGUAGUGUAAUAGCUAGGAUAUCGUUUUUUCGAGAAGGAGCUUCGAAGUGAUACGAAAGUAUCGCUUCG [FMN A 12]	K4 kissing-loop RNA reporter	nM	227
UUACUGCCCAGUGAUGUUGGGUAUCGGCGGCGAGGACCGGUACGGCCGCCACUCGGCGCACAGGCGGAGUGAUGUUUCGCUUAAA [Same State Tryptophan A GF 12]	K4 kissing-loop RNA reporter	nM	621
UUUUUGGUUUAGAGUGAUGUUCCUUGUAAUCGAGGACCGGUACGGCCGCCACUCGAUUAGAAAAGAAAAGAAAAGAGUGAUGUUU [BDazzled - #2 SS Tryptophan A]	K4 kissing-loop RNA reporter	nM	347
CUGUAUCAUAUUGAUACCAGAGAAAGAACCAGUGAUGUUGGAAAAGACGAAUAAAUUAUACUCCCUUGGCAGCGGAAAUGAACAG [Totally accidental]	K4 kissing-loop RNA reporter	nM	73
CCAUCGCUAUUCGAUACCAGCUACUUAGUGAUGUUAAGUUAAAAUAAAUUGUAGAUUAAAAGCCCUUGGCAGCGAAUAGUGAUGG [Theophylline B K4 19]	K4 kissing-loop RNA reporter	nM	149
UAUUUAAAUAAAAUAAAAUAAAUUGCUGAUACCAGAGCCAAUUGGCUCCCUUGGCAGCGGAUCGAGUGAUGUUCGUAAAAUUUAU [AK2 SS Theophylline A]	K4 kissing-loop RNA reporter	nM	28.5
GCAGUGAUGUUGCGGAUGUACAGUGGAGUGCGAGGACCGGUACGGCCGCCACUCGUACAGAACAAGCUAAUAUAUCGAUAGGUGA [X]	K4 kissing-loop RNA reporter	nM	203
CGUUUAUAGCAGGAUACCAGUACCCAUAAAGUACGUUAAUAGUAGAGUGAUGUUCUAAAGUACCCUUGGCAGCUUCCCGUGAGUG [ExTheophylB.T]	K4 kissing-loop RNA reporter	nM	88.9
UGGUUAAGCAGUGAUGUUGCAAGUGAUGAUACCAGUUAAGAAGAGAACCCUUGGCAGCAUAAAGUGCGCUCUGAUGAGUGUGCUU [whbob_SS_Theo_A_w55]	K4 kissing-loop RNA reporter	nM	165
AAGGCCACGAGAAGGAGCGUGCUGUGGAGUGAUGUUCCAUUGUAGACCUAAGGUCUACGAGCACAGGUAGGUCGCUCGUGGUCAA [Omei KL Arginine B SS A v4]	K4 kissing-loop RNA reporter	nM	113
ACGAUCAUGUCGGCCGCCACUGAGAGUAGUGAUGUUACUCUUUUCCUUUAGUUAUUAUAUUUUAUCAGGACCGGGACAUGUUCGU [JR_ExcTryptoB_Sub022]	K4 kissing-loop RNA reporter	nM	88.3
GAUGAAUGCGGAAGGAGCGAGUUUUUGGGAGUGAUGUUCCCUGCAUAUGCACGUGGGAAAGCUCAGGUAGGUCGCCGCGCUUGUU [Same State Arginine B GF 28]	K4 kissing-loop RNA reporter	nM	183
